# Test system: OVCAR-5 complex spheroid (HUVEC/MSC), viability % T/C
# MEASUREMENT_PROTOCOL: Anticancer human tumor OVCAR-5 cell line growth inhibition [Asc];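 note: spheroids exposed to agents for 7 days before readout; 100% = DMSO vehicle-treated wells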
# EXPERIMENTAL_CONTEXT: second compound 0.3 µM; first compound 0.00316 µM; hits give low values
Consider the following molecules and their measured viability, T/C readings.
Express it in %; write the number only.

# count of solved cases: 5
# input Given the molecule Cn1ncnc1[C@H]1c2n[nH]c(=O)c3cc(F)cc(c23)N[C@@H]1c1ccc(F)cc1 + CCN1C(C(=O)NC23CCC(C(=O)O)(CC2)CC3)C(c2cccc(Cl)c2F)C2(C(=O)Nc3cc(Cl)ccc32)C12CCCCC2 , what is its reported viability, T/C?
# output 102

# input Now this one: NC1CCC(NC2CC2c2ccccc2)CC1 (stereo unspecified) + CCN1C(C(=O)NC23CCC(C(=O)O)(CC2)CC3)C(c2cccc(Cl)c2F)C2(C(=O)Nc3cc(Cl)ccc32)C12CCCCC2
# output 93.2

# input Now this one: CNC(C)C(=O)NC1CN(S(=O)(=O)c2cccc(S(=O)(=O)N3CCC4CCC(C(=O)NC(c5ccccc5)c5ccccc5)N4C(=O)C(NC(=O)C(C)NC)C3)c2)CCC2CCC(C(=O)NC(c3ccccc3)c3ccccc3)N2C1=O (stereo unspecified) + CCN1C(C(=O)NC23CCC(C(=O)O)(CC2)CC3)C(c2cccc(Cl)c2F)C2(C(=O)Nc3cc(Cl)ccc32)C12CCCCC2
# output 102

# input Now this one: COc1c(OCCCN2CCOCC2)ccc2c3n(c(=NC(=O)c4cnc(N)nc4)nc12)CCN3 + CCN1C(C(=O)NC23CCC(C(=O)O)(CC2)CC3)C(c2cccc(Cl)c2F)C2(C(=O)Nc3cc(Cl)ccc32)C12CCCCC2
# output 87.8

# input Now this one: CCN1CCN(Cc2ccc(Nc3ncc(F)c(-c4cc(F)c5nc(C)n(C(C)C)c5c4)n3)nc2)CC1 + CCN1C(C(=O)NC23CCC(C(=O)O)(CC2)CC3)C(c2cccc(Cl)c2F)C2(C(=O)Nc3cc(Cl)ccc32)C12CCCCC2
# output 102

Further cases:
# input Given the molecule O=C(c1ccc(F)c(F)c1Nc1ccc(I)cc1F)N1CC(O)([C@@H]2CCCCN2)C1 + CCN1C(C(=O)NC23CCC(C(=O)O)(CC2)CC3)C(c2cccc(Cl)c2F)C2(C(=O)Nc3cc(Cl)ccc32)C12CCCCC2 , what is its reported viability, T/C?
# output 94.9

----------
# Tested on: OVCAR-5 complex spheroid (HUVEC/MSC), viability % T/C
# MEASUREMENT_PROTOCOL: Anticancer human tumor OVCAR-5 cell line growth inhibition [Asc];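 note: spheroids exposed to agents for 7 days before readout; 100% = DMSO vehicle-treated wells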
# EXPERIMENTAL_CONTEXT: second compound 0.1 µM; first compound 0.949 µM; hits give low values
ASSAY_METRIC: viability, T/C (%)
Express it in %; write the number only.

# count of solved cases: 3
# input Hello, I am looking for reported viability, T/C with OVCAR-5 complex spheroid (HUVEC/MSC), viability % T/C for Cc1nc(N2CCC3(CC2)COC(C)C3N)c(CO)nc1Sc1ccnc(N)c1Cl (centres undefined) + CNC(C)C(=O)NC1CN(S(=O)(=O)c2cccc(S(=O)(=O)N3CCC4CCC(C(=O)NC(c5ccccc5)c5ccccc5)N4C(=O)C(NC(=O)C(C)NC)C3)c2)CCC2CCC(C(=O)NC(c3ccccc3)c3ccccc3)N2C1=O . Could you help?
# output 58.8

# input Now this one: CCN1C(C(=O)NC23CCC(C(=O)O)(CC2)CC3)C(c2cccc(Cl)c2F)C2(C(=O)Nc3cc(Cl)ccc32)C12CCCCC2 (centres undefined) + CNC(C)C(=O)NC1CN(S(=O)(=O)c2cccc(S(=O)(=O)N3CCC4CCC(C(=O)NC(c5ccccc5)c5ccccc5)N4C(=O)C(NC(=O)C(C)NC)C3)c2)CCC2CCC(C(=O)NC(c3ccccc3)c3ccccc3)N2C1=O
# output 90.7

# input Now this one: Cc1nc(N2CCC3(CC2)COC(C)C3N)c(CO)nc1Sc1ccnc(N)c1Cl (centres undefined) + Cc1c(S(C)(=O)=O)c(-c2cc(F)cc(N3CCN(c4ccc(NS(=O)(=O)c5ccc(NC(CCN6CCC(C(=O)OCCCP(=O)(O)O)CC6)CSc6ccccc6)c(S(=O)(=O)C(F)(F)F)c5)cc4)CC3)c2)c(-c2ccc(Cl)cc2)n1C(C)C
# output 55.7

Okay, now this molecule:
# input Hello, I am looking for reported viability, T/C with OVCAR-5 complex spheroid (HUVEC/MSC), viability % T/C for CCN1C(C(=O)NC23CCC(C(=O)O)(CC2)CC3)C(c2cccc(Cl)c2F)C2(C(=O)Nc3cc(Cl)ccc32)C12CCCCC2 (centres undefined) + Cc1c(S(C)(=O)=O)c(-c2cc(F)cc(N3CCN(c4ccc(NS(=O)(=O)c5ccc(NC(CCN6CCC(C(=O)OCCCP(=O)(O)O)CC6)CSc6ccccc6)c(S(=O)(=O)C(F)(F)F)c5)cc4)CC3)c2)c(-c2ccc(Cl)cc2)n1C(C)C . Could you help?
# output 97.3

----------
# Tested on: OVCAR-5 complex spheroid (HUVEC/MSC), viability % T/C
# MEASUREMENT_PROTOCOL: Anticancer human tumor OVCAR-5 cell line growth inhibition [Asc];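 note: spheroids exposed to agents for 7 days before readout; 100% = DMSO vehicle-treated wells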
# EXPERIMENTAL_CONTEXT: second compound 0.1 µM; first compound 0.0949 µM; hits give low values
# From the text: Multicellular complex tumor spheroid response to apoptosis pathway targeting inhibitors Alrizomadlin, Pelcitoclax, and Dasminapant in combination with a variety of drugs and investigational agents in selected tumor cell lines […] Compounds. […] If the clinical Cmax for an agent had not been determined, the highest concentration tested was 10 microM. […]
Consider the following molecules and their measured viability, T/C readings.
Express it in %; write the number only.

# input Given the molecule NC(=O)C(=Cn1cnc(-c2cc(C(F)(F)F)cc(C(F)(F)F)c2)n1)c1cncnc1 + CNC(C)C(=O)NC1CN(S(=O)(=O)c2cccc(S(=O)(=O)N3CCC4CCC(C(=O)NC(c5ccccc5)c5ccccc5)N4C(=O)C(NC(=O)C(C)NC)C3)c2)CCC2CCC(C(=O)NC(c3ccccc3)c3ccccc3)N2C1=O , what is its reported viability, T/C?
# output 57.2

# input Now this one: Cc1nc(N2CCC3(CC2)COC(C)C3N)c(CO)nc1Sc1ccnc(N)c1Cl (stereo not drawn) + CNC(C)C(=O)NC1CN(S(=O)(=O)c2cccc(S(=O)(=O)N3CCC4CCC(C(=O)NC(c5ccccc5)c5ccccc5)N4C(=O)C(NC(=O)C(C)NC)C3)c2)CCC2CCC(C(=O)NC(c3ccccc3)c3ccccc3)N2C1=O
# output 76.7

Okay, now this molecule:
# input Given the molecule Cc1nc(N2CCC3(CC2)COC(C)C3N)c(CO)nc1Sc1ccnc(N)c1Cl (stereo not drawn) + Cc1c(S(C)(=O)=O)c(-c2cc(F)cc(N3CCN(c4ccc(NS(=O)(=O)c5ccc(NC(CCN6CCC(C(=O)OCCCP(=O)(O)O)CC6)CSc6ccccc6)c(S(=O)(=O)C(F)(F)F)c5)cc4)CC3)c2)c(-c2ccc(Cl)cc2)n1C(C)C , what is its reported viability, T/C?
# output 81.7

----------
# Tested on: OVCAR-5 complex spheroid (HUVEC/MSC), viability % T/C
# MEASUREMENT_PROTOCOL: Anticancer human tumor OVCAR-5 cell line growth inhibition [Asc]; active means viability on the fitted dose curve at most 10% of control; inactive means the rest;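 note: spheroids exposed to agents for 7 days before readout; 100% = DMSO vehicle-treated wells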
# EXPERIMENTAL_CONTEXT: second compound 10 µM; first compound 0.1 µM
# Source text: Multicellular complex tumor spheroid response to apoptosis pathway targeting inhibitors Alrizomadlin, Pelcitoclax, and Dasminapant in combination with a variety of drugs and investigational agents in selected tumor cell lines […] Compounds. […] If the clinical Cmax for an agent had not been determined, the highest concentration tested was 10 microM. […]
Tick one outcome: T (active), F (inactive)

# input Would you mind telling me which call this test gave C#Cc1c(F)ccc2cc(O)cc(-c3ncc4c(N5CC6CCC(C5)N6)nc(OCC56CCCN5CC(F)C6)nc4c3F)c12 (stereo unspecified) + Cc1c(S(C)(=O)=O)c(-c2cc(F)cc(N3CCN(c4ccc(NS(=O)(=O)c5ccc(NC(CCN6CCC(C(=O)OCCCP(=O)(O)O)CC6)CSc6ccccc6)c(S(=O)(=O)C(F)(F)F)c5)cc4)CC3)c2)c(-c2ccc(Cl)cc2)n1C(C)C ?
# output F

# input Now this one: NC1CCC(NC2CC2c2ccccc2)CC1 (stereo unspecified) + Cc1c(S(C)(=O)=O)c(-c2cc(F)cc(N3CCN(c4ccc(NS(=O)(=O)c5ccc(NC(CCN6CCC(C(=O)OCCCP(=O)(O)O)CC6)CSc6ccccc6)c(S(=O)(=O)C(F)(F)F)c5)cc4)CC3)c2)c(-c2ccc(Cl)cc2)n1C(C)C
# output F

# input Now this one: O=C(c1cc(Cc2n[nH]c(=O)c3ccccc23)ccc1F)N1CCN(C(=O)C2CC2)CC1 + Cc1c(S(C)(=O)=O)c(-c2cc(F)cc(N3CCN(c4ccc(NS(=O)(=O)c5ccc(NC(CCN6CCC(C(=O)OCCCP(=O)(O)O)CC6)CSc6ccccc6)c(S(=O)(=O)C(F)(F)F)c5)cc4)CC3)c2)c(-c2ccc(Cl)cc2)n1C(C)C
# output F

Further cases:
# input Would you mind telling me which call this test gave COc1c(OCCCN2CCOCC2)ccc2c3n(c(=NC(=O)c4cnc(N)nc4)nc12)CCN3 + Cc1c(S(C)(=O)=O)c(-c2cc(F)cc(N3CCN(c4ccc(NS(=O)(=O)c5ccc(NC(CCN6CCC(C(=O)OCCCP(=O)(O)O)CC6)CSc6ccccc6)c(S(=O)(=O)C(F)(F)F)c5)cc4)CC3)c2)c(-c2ccc(Cl)cc2)n1C(C)C ?
# output T

# input Now this one: CCN1CCN(Cc2ccc(Nc3ncc(F)c(-c4cc(F)c5nc(C)n(C(C)C)c5c4)n3)nc2)CC1 + Cc1c(S(C)(=O)=O)c(-c2cc(F)cc(N3CCN(c4ccc(NS(=O)(=O)c5ccc(NC(CCN6CCC(C(=O)OCCCP(=O)(O)O)CC6)CSc6ccccc6)c(S(=O)(=O)C(F)(F)F)c5)cc4)CC3)c2)c(-c2ccc(Cl)cc2)n1C(C)C
# output F

# input Now this one: CNC(C)C(=O)NC1CN(S(=O)(=O)c2cccc(S(=O)(=O)N3CCC4CCC(C(=O)NC(c5ccccc5)c5ccccc5)N4C(=O)C(NC(=O)C(C)NC)C3)c2)CCC2CCC(C(=O)NC(c3ccccc3)c3ccccc3)N2C1=O (stereo unspecified) + Cc1c(S(C)(=O)=O)c(-c2cc(F)cc(N3CCN(c4ccc(NS(=O)(=O)c5ccc(NC(CCN6CCC(C(=O)OCCCP(=O)(O)O)CC6)CSc6ccccc6)c(S(=O)(=O)C(F)(F)F)c5)cc4)CC3)c2)c(-c2ccc(Cl)cc2)n1C(C)C
# output F
